All values here come from patent US20220233556A1.

Test description: Ocular PK study of PS nanoparticles (mPEG-PLA), topical eye drops
Format: in vivo, New Zealand white rabbits
Measurement context: New Zealand white, rabbit, aqueous humor, topical or ocular, read-out: Cmax, Aqueous humor
Value type: Cmax (nM)
Only the number, expressed in nM, is required.

Given item CCOP(=O)(OCC)OCCCCOC(=O)CC1=C(C)/C(=C/c2ccc([S+](C)[O-])cc2)c2ccc(F)cc21 (stereo not shown) , the value recorded as its Cmax is 2600

====

Test description: Corneal levels of a PS 0.2% solution formulation after single topical application
Assay type: in vivo
Measurement context: cornea, topical or ocular, 0.2 % PS solution (single application, volume not stated), mean ± SEM, read-out: AUC0-t, Cornea
Value type: AUC(0-t) (µM·h)
Only the number, expressed in µM·h, is required.

Given item CCOP(=O)(OCC)OCCCCOC(=O)CC1=C(C)/C(=C/c2ccc([S+](C)[O-])cc2)c2ccc(F)cc21 (stereo not shown) , the value recorded as its AUC(0-t) is 62.6

====

Test description: PS levels in ocular tissues (HPLC) after topical 3.5% PS Vitamin E TPGS solution
Type: in vivo, New Zealand white rabbits
Measurement context: New Zealand white, rabbit, aqueous humor, 3.5 % PS solution (eye drops), 1 h, read-out: PS in Aqueous humor
Value type: concentration at 1 h (nM)
Only the number, expressed in nM, is required.

Given item CCOP(=O)(OCC)OCCCCOC(=O)CC1=C(C)/C(=C/c2ccc([S+](C)[O-])cc2)c2ccc(F)cc21 (stereo not shown) , the value recorded as its concentration at 1 h is 2300

====

Test description: PS levels in ocular tissues after topical gellan gum-based in-situ gel
Assay type: in vivo, New Zealand white rabbits
Measurement context: New Zealand white, rabbit, cornea, gellan gum 0.5% in-situ gel, 2.4~3% PS, eye drops, read-out: PS in Cornea
Value type: concentration at 2 h (µM)
Only the number, expressed in µM, is required.

Given item CCOP(=O)(OCC)OCCCCOC(=O)CC1=C(C)/C(=C/c2ccc([S+](C)[O-])cc2)c2ccc(F)cc21 (stereo not shown) [PS, phosphosulindac] , the value recorded as its concentration at 2 h is 72

====

Test description: Biodistribution of PS nanoparticles after intravitreal injection
Type: in vivo, New Zealand white rabbits
Measurement context: New Zealand white, rabbit, vitreous body, other: intravitreal, 2% PS Nanoparticle Soln., 1 h, read-out: PS in Vitreous body
Value type: concentration at 1 h (µM)
Only the number, expressed in µM, is required.

Given item CCOP(=O)(OCC)OCCCCOC(=O)CC1=C(C)/C(=C/c2ccc([S+](C)[O-])cc2)c2ccc(F)cc21 (stereo not shown) , the value recorded as its concentration at 1 h is 34

====

Test description: PS biodistribution after topical alternative gellan gum-based in-situ gel
Assay type: in vivo, New Zealand white rabbits
Measurement context: New Zealand white, rabbit, aqueous humor, 1 h, alternative gellan gum 0.4% gel, read-out: PS in Aqueous humor
Value type: concentration at 1 h (nM)
Only the number, expressed in nM, is required.

Given item CCOP(=O)(OCC)OCCCCOC(=O)CC1=C(C)/C(=C/c2ccc([S+](C)[O-])cc2)c2ccc(F)cc21 (stereo not shown) [PS, phosphosulindac] , the value recorded as its concentration at 1 h is 400

====

Test description: PS biodistribution after topical alternative gellan gum-based in-situ gel
Format: in vivo, New Zealand white rabbits
Measurement context: New Zealand white, rabbit, conjunctiva, 0.5 h, alternative gellan gum 0.4% gel, read-out: PS in Conjunctiva
Value type: concentration at 0.5 h (µM)
Only the number, expressed in µM, is required.

Given item CCOP(=O)(OCC)OCCCCOC(=O)CC1=C(C)/C(=C/c2ccc([S+](C)[O-])cc2)c2ccc(F)cc21 (stereo not shown) [PS, phosphosulindac] , the value recorded as its concentration at 0.5 h is 37.7
